Biological target: Delta-type opioid receptor (Homo sapiens, UniProt P41143)
Sequence (P41143 whole entry): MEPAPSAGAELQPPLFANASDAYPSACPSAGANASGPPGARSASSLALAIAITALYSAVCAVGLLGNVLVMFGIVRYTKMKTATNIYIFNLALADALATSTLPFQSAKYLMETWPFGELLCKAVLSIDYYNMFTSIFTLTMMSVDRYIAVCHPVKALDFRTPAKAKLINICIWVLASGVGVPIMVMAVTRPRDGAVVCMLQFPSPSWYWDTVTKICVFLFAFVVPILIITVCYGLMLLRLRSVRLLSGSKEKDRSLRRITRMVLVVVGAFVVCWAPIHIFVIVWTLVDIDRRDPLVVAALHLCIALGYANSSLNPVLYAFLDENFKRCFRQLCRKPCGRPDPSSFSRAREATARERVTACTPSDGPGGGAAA
Assay: Displacement of [3H]DADLE from human recombinant delta opioid receptor expressed in CHO cell membranes after 2 hrs by liquid scintillation counting analysis
pKi values for the compounds below.
Scale: pKi equals -log10([C]), with [C] in mol/L.

[[record]]
mol = "Oc1ccc2c(c1)[C@]1(CCc3ccccc3)CCN(CCCc3ccccc3)C[C@@H]1O2"
val = 6.95

[[record]]
mol = "Oc1ccc2c(c1)[C@]1(CCc3ccccc3)CCN(CCc3cccc(C(F)(F)F)c3)C[C@@H]1O2"
val = 7.20

[[record]]
mol = "Oc1ccc2c(c1)[C@]1(CCc3ccccc3)CCN(CCc3ccccc3)C[C@@H]1O2"
val = 7.41

[[record]]
mol = "Oc1ccc2c(c1)[C@]1(CCc3ccccc3)CCN(CCc3ccc(C(F)(F)F)cc3)C[C@@H]1O2"
val = 7.59

[[record]]
mol = "Oc1ccc2c(c1)[C@]1(CCc3ccccc3)CCN(CC3CC3)C[C@@H]1O2"
val = 7.62


Memo: Oc1ccc2c(c1)[C@]1(CCc3ccccc3)CCN(CCc3ccccc3C(F)(F)F)C[C@@H]1O2 , reported pKi: 6.87

Memo: Oc1ccc2c(c1)[C@]1(CCc3ccccc3)CCN(CCc3ccccc3F)C[C@@H]1O2 , reported pKi: 7.59

Memo: CN1CC[C@@]2(CCc3ccccc3F)c3cc(O)ccc3O[C@H]2C1 , reported pKi: 7.28

---

Target: Delta-type opioid receptor (Homo sapiens)
Experiment: Displacement of [3H]DADLE from human recombinant delta opioid receptor expressed in CHO cell membranes after 2 hrs by liquid scintillation counting analysis
Metric: Ki (µM)
Your answer should be a plain number; it is taken to be in µM.

Solved entries:
[[record]]
mol = "CCCC[C@@]12CCN(C)C[C@@H]1Oc1ccc(O)cc12"
metric = "Ki"
val = 0.207

[[record]]
mol = "CN1CC[C@@]2(CCCCCc3ccccc3)c3cc(O)ccc3O[C@H]2C1"
metric = "Ki"
val = 0.075

[[record]]
mol = "Oc1ccc2c(c1)[C@]1(CCc3ccccc3)CCN(CCc3ccc(F)cc3)C[C@@H]1O2"
metric = "Ki"
val = 0.034


Memo: CN1CC[C@@]2(CCc3ccc(F)cc3)c3cc(O)ccc3O[C@H]2C1 , reported Ki: 0.128
